- System: HL-60
- RUN_DESCRIPTION: Cytotoxicity against human HL60 cells assessed as reduction in cell growth inhibition after 72 hrs by trypan blue-staining based hemocytometric analysis
- Assay type: functional
- ASSAY_SETUP: HL-60, 72 h
Note to self: GI50 under 800 nM means met, ties and anything higher get not met.

# input Please let me know if Cc1ccc(C/C(=N\O)C(=O)NCCSSCCNC(=O)/C(Cc2ccc(C)cc2)=N/O)cc1 shows GI50 below 800 nM.
# output met

# input Please let me know if CC(C)c1ccc(C/C(=N\O)C(=O)NCCSSCCNC(=O)/C(Cc2ccc(C(C)C)cc2)=N/O)cc1 shows GI50 below 800 nM.
# output met

# input Please let me know if COc1ccc(-c2cc(C(=O)NCCSSCCNC(=O)c3cc(-c4ccc(OC)cc4)on3)no2)cc1 shows GI50 below 800 nM.
# output not met

# input Please let me know if O=C(NCCSSCCNC(=O)/C(Cc1cccc(C(F)(F)F)c1)=N/O)/C(Cc1cccc(C(F)(F)F)c1)=N/O shows GI50 below 800 nM.
# output met

# input Please let me know if COc1ccc(-c2cc(C(=O)NCCSSCCNC(=O)c3cc(-c4ccc(OC)cc4)[nH]n3)n[nH]2)cc1 shows GI50 below 800 nM.
# output not met

# input Please let me know if COc1ccc(C/C(=N\O)C(=O)NCCSSCCNC(=O)/C(Cc2ccc(OC)c(O)c2)=N/O)cc1O shows GI50 below 800 nM.
# output met

# input Please let me know if O=C(NCCSSCCNC(=O)c1cc(-c2ccc(O)cc2)on1)c1cc(-c2ccc(O)cc2)on1 shows GI50 below 800 nM.
# output not met

* * *

For each entry below, report its IC50 value.
- ASSAYED_TARGET: Histone deacetylase
- RUN_DESCRIPTION: Inhibition of HDAC in human HeLa cells using Fluor deLys as substrate assessed as deacetylation of substrate by fluorescence assay
- Assay type: cell-based
Please give a number only; it is taken to be in nM.

So the reported IC50 for O=C(NCCSSCCNC(=O)/C(Cc1cccc(Cl)c1)=N/O)/C(Cc1cccc(Cl)c1)=N/O , on Histone deacetylase, turned out to be 210

So the reported IC50 for CO/N=C(\Cc1ccc(OC)cc1)C(=O)NCCSSCCNC(=O)/C(Cc1ccc(OC)cc1)=N/OC , on Histone deacetylase, turned out to be 3150

So the reported IC50 for O=C(NCCSSCCNC(=O)/C(Cc1cccc(C(F)(F)F)c1)=N/O)/C(Cc1cccc(C(F)(F)F)c1)=N/O , on Histone deacetylase, turned out to be 270

So the reported IC50 for CO/N=C(\Cc1cccc(Cl)c1)C(=O)NCCSSCCNC(=O)/C(Cc1cccc(Cl)c1)=N/OC , on Histone deacetylase, turned out to be 4500

So the reported IC50 for COc1ccc(C/C(=N\O)C(=O)NCCSSCCNC(=O)/C(Cc2ccc(OC)c(O)c2)=N/O)cc1O , on Histone deacetylase, turned out to be 30

So the reported IC50 for CO/N=C(\Cc1ccc(Cl)cc1Cl)C(=O)NCCSSCCNC(=O)/C(Cc1ccc(Cl)cc1Cl)=N/OC , on Histone deacetylase, turned out to be 8590

So the reported IC50 for CC(C)c1ccc(C/C(=N\O)C(=O)NCCSSCCNC(=O)/C(Cc2ccc(C(C)C)cc2)=N/O)cc1 , on Histone deacetylase, turned out to be 210

So the reported IC50 for O=C(NCCSSCCNC(=O)/C(Cc1ccc(O)c(Br)c1)=N/O)/C(Cc1ccc(O)c(Br)c1)=N/O [PSAMMAPLIN A] , on Histone deacetylase, turned out to be 50

So the reported IC50 for COc1ccc(-c2cc(C(=O)NCCSSCCNC(=O)c3cc(-c4ccc(OC)c(Br)c4)[nH]n3)n[nH]2)cc1Br , on Histone deacetylase, turned out to be 1860

So the reported IC50 for O=C(NCCSSCCNC(=O)/C(Cc1ccc2c(c1)OCO2)=N/O)/C(Cc1ccc2c(c1)OCO2)=N/O , on Histone deacetylase, turned out to be 130

So the reported IC50 for COc1ccc(-c2cc(C(=O)NCCSSCCNC(=O)c3cc(-c4ccc(OC)cc4)[nH]n3)n[nH]2)cc1 , on Histone deacetylase, turned out to be 2770

So the reported IC50 for Cc1ccc(C/C(=N\O)C(=O)NCCSSCCNC(=O)/C(Cc2ccc(C)cc2)=N/O)cc1 , on Histone deacetylase, turned out to be 260

So the reported IC50 for O=C(NCCSSCCNC(=O)c1cc(-c2ccc(O)cc2)on1)c1cc(-c2ccc(O)cc2)on1 , on Histone deacetylase, turned out to be 3140

So the reported IC50 for O=C(NCCSSCCNC(=O)/C(Cc1ccc(Cl)cc1Cl)=N/O)/C(Cc1ccc(Cl)cc1Cl)=N/O , on Histone deacetylase, turned out to be 280

So the reported IC50 for CO/N=C(\Cc1ccc(C)cc1)C(=O)NCCSSCCNC(=O)/C(Cc1ccc(C)cc1)=N/OC , on Histone deacetylase, turned out to be 7650

So the reported IC50 for COc1ccc(-c2cc(C(=O)NCCSSCCNC(=O)c3cc(-c4ccc(OC)c(Br)c4)on3)no2)cc1Br , on Histone deacetylase, turned out to be 4650

So the reported IC50 for O=C(NCCSSCCNC(=O)c1cc(-c2ccc(O)c(Br)c2)[nH]n1)c1cc(-c2ccc(O)c(Br)c2)[nH]n1 , on Histone deacetylase, turned out to be 680
